For each entry below, report its GI50 value.
test system: RPMI-8226 leukemia; test: NCI tumour cell line growth inhibition, 48 h

Req: Report GI50 for C=CCC(N[C@H](CO)c1ccccc1)c1cn(S(=O)(=O)c2ccc(C)cc2)c2ccccc12 (some centres undefined) please.
Resp: 6.85 µM

Req: Tell me the measured GI50 of C/C1=C/C(=O)O[C@@H]2C[C@@H](CC[C@H](C)/C=C\C=C\CC1)O[C@@](OCCc1ccccc1)([C@@H]1CSC(=O)N1)C2 , please.
Resp: 3.28 µM

Req: Bench note: what GI50 did [C-]#[N+][C@]12C(=O)[C@H](CCC1(C)C)C(C)(C)[C@H]1C(=O)N(C)c3cccc2c31 show?
Resp: 13.1 µM

Req: Reported GI50 for O=C1C(=O)c2ccccc2C(O)=C1CC=C(Cl)Cl : what is it?
Resp: 6.53 µM
